Test system: H1975 lung cancer cells
protocol summary: Cell viability, H1975
Type: cell-based
assay conditions: Homo sapiens, NCI-H1975, read-out: H1975 [Lung] (uM), Table 2
measure name: IC50 (µM)
Lab book: enter the figure in µM, no units written.

Can you share its IC50? I mean this molecule: C=CS(=O)(=O)N1CCN(Cc2ccc(OC(F)(F)F)c(F)c2)[C@@H](CN2CCS(=O)(=O)CC2)C1 2.6

Proceeding to the next molecule to report its IC50.
Can you share its IC50? I mean this molecule: C=CS(=O)(=O)N1CCN(Cc2ccc(OC(F)(F)F)c(F)c2)[C@@H](COCc2cn[nH]c2)C1 8.1
